Ref: ChEMBL document CHEMBL2218924

# experimental-system: Testis-specific serine/threonine-protein kinase 2 (Homo sapiens) (UniProt Q96PF2)
# Sequence (whole entry): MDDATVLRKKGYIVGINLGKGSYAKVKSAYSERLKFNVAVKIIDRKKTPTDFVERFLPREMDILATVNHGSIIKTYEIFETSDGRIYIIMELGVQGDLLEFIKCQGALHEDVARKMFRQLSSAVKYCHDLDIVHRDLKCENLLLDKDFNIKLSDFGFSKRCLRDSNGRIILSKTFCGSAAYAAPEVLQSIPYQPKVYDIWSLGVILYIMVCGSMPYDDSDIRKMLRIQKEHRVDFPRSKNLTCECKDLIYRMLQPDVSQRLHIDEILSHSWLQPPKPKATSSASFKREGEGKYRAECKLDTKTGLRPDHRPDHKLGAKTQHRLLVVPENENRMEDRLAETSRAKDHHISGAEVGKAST
# particulars: at 1 µM
Here the recorded residual activity is given for each entry.
observable: residual activity (%)

• CNc1cc2c(Nc3cccc(Br)c3)ncnc2cn1 = 104
• O=c1cc(N2CCNCC2)oc2c(-c3ccccc3)cccc12 = 92
• Nc1nc(Nc2ccc(S(N)(=O)=O)cc2)nn1C(=O)c1c(F)cccc1F = 103
• O=C1NC(=O)/C(=C/c2ccc3c(c2)OC(F)(F)O3)S1 = 93
• O=C1Nc2cc(Br)ccc2/C1=C1/Nc2ccccc2/C1=N\O = 73
• O=C(O)c1ccc2c3c1cccc3c(=O)n1c3ccccc3nc21 = 118
